The next entries give measured pKi for UniProt:Q62758.
Sequence (Q62758 whole entry): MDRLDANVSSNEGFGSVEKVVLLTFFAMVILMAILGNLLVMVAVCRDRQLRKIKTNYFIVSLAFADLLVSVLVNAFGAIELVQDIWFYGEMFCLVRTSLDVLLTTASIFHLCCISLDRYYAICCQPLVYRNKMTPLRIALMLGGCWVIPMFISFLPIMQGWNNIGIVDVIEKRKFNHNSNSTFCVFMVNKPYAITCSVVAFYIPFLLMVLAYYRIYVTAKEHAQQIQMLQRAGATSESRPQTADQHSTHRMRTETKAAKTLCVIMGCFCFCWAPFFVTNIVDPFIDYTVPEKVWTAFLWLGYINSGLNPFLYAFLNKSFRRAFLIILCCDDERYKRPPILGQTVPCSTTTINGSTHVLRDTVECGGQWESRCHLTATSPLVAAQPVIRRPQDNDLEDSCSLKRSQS
pKi: −log10 of the molar value.

[
  {
    "Molecule": "COc1ccc2[nH]cc(CCN)c2c1",
    "pKi": 6.40
  },
  {
    "Molecule": "COc1cc(N)c(Cl)cc1C(=O)NC1CCN2CCCC1C2 (stereo not drawn)",
    "pKi": 6.61
  },
  {
    "Molecule": "CCN(CC)C(=O)[C@@H]1C=C2c3cccc4[nH]cc(c34)C[C@H]2N(C)C1",
    "pKi": 6.00
  },
  {
    "Molecule": "Cn1cc(CCN)c2cc(O)ccc21",
    "pKi": 5.84
  },
  {
    "Molecule": "O=C(c1ccc(F)cc1)C1CCN(CCn2c(=O)[nH]c3ccccc3c2=O)CC1",
    "pKi": 6.00
  },
  {
    "Molecule": "CNS(=O)(=O)Cc1ccc2[nH]cc(CCN(C)C)c2c1",
    "pKi": 6.00
  },
  {
    "Molecule": "COc1cc(N)c(Cl)cc1C(=O)NC1CN2CCC1CC2 (stereo not drawn) [ZACOPRIDE,R]",
    "pKi": 6.09
  },
  {
    "Molecule": "CCCN(CCC)C1CCc2cccc(O)c2C1 (stereo not drawn)",
    "pKi": 6.00
  }
]

Origin of measurements: BindingDB's records for PubMed 7796807
